Entries and their composite z-score values follow.
experiment: compound binding in COS7 lysate, probe aLAP1, primary screen, cell lysate, small-molecule microarray (AID 1124); details: probe aLAP1, fluorescence, higher = more signal;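 note: lysate comes from COS7 cells expressing LAP1 and is applied at 0.3 µg/mL; score merges spot fluorescence near 667 nm with signal-to-noise over triplicate slides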
Give a plain numeric answer without units written out.

Sample answers from the record:
O=C1O[C@H](c2ccccc2)[C@H](c2ccccc2)N2[C@H]1[C@@H](C(=O)O)[C@]1(C(=O)Nc3ccc(C#CCCO)cc31)[C@H]2c1ccc(O)cc1 ... 0.514
COC(=O)[C@@]1(Cc2ccccc2)[C@H]2c3cc(C(=O)N4CCCC4)n(CC4CC4)c3C[C@H]2CN1C(=O)c1ccccc1 ... 0.114
O=C1OCCC=C[C@H]2OC34C=CCN(CCN5CCOCC5)C(=O)[C@H]3N(CCCCCCO)C(=O)[C@@H]4C12 (stereo partly drawn) ... 0.133

Look up and state reported composite z-score for `CCCC=C(CCC)[C@@H](NS(=O)(=O)c1cccs1)c1ccc(C(=O)OC)cc1` 0.157

Recall and state the measured composite z-score for `C=CC[C@]1(C(=O)N2CCCCC2)N=C(c2ccc(OCCCO)cc2)O[C@H]1c1ccccc1` . 0.488

Report composite z-score, nothing else, for this molecule: COc1ccc(COC2OC[C@]3(C)[C@H]4C5=C(CN3C(=O)OC(C)(C)C)[C@H](C)C(CO)C(CO)C5CC[C@@H]24)cc1 (stereo partly drawn) 0.846

Annotate the molecule `COC(=O)[C@@]1(Cc2ccc(OC)cc2)[C@H]2c3cc(C(=O)N4CCCC4)n(Cc4ccsc4Br)c3C[C@H]2CN1C(=O)c1ccccc1` with its measured composite z-score. 0.0786

Write down composite z-score measured for item `C=CC[C@@]1(C(N)=O)N=C(c2ccc(OCCCO)cc2)O[C@@H]1c1ccccc1CN=[N+]=[N-]` 1.13

###

assay: P. aeruginosa biofilm formation inhibitors, primary screen, strain PAO1, LB-PBS medium, absorbance 600 nm (AID 1176); note: test concentration not given here; conditions: P. aeruginosa PAO1 growth/biofilm, A600, 12 h; higher = more signal
# z-score annotations
Just the number.

O=C1NCC(=O)N2[C@@H]1C[C@@H](C(=O)O)[C@H]2c1cccc(OCCO)c1 ... -0.53

# return recorded z-score for entry `O=C1[C@H]2C=C(Br)[C@H](C[C@@H]2OCCCCO)[C@@]12CO2` 0.13

Specify z-score for `COCCOC(=O)N1C(=O)[C@@]2(c3cc(C#CCCO)ccc31)[C@H](C(=O)N1CCc3cc(OC)c(OC)cc3C1)[C@H]1C(=O)O[C@H](c3ccccc3)[C@H](c3ccccc3)N1[C@@H]2c1ccc(O)cc1` and stop. 0.875

Look up and state reported z-score for `COC(=O)c1c(CC[C@@H](CO)NC(=O)N[C@H](Cn2cc(Cc3ccccc3)nn2)C(C)C)oc(C(C)=O)c1C(=O)OC` 0.656

###

Quick reference for composite z-score among some molecules
molecular target: Calmodulin-1 (Homo sapiens) (UniProt P0DP23); test: calcium-bound CALM1 binders on microarrays, profiling panel, artefact control for SMM control-protein annotation, biochemical, small-molecule microarray, Cy5-labelled CALM1, plus calcium (AID 1112); details: Cy5-CALM1 binding fluorescence, higher = more signal;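 note: score merges spot fluorescence with signal to noise from triplicate slides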
Note: the reply should be a number with no unit written.

As a guide, the following entries are already answered.
[N-]=[N+]=NCc1ccccc1[C@@H]1OC(c2ccc(OCCCO)cc2)=N[C@]1(CCS(=O)(=O)c1ccccc1)C(=O)NCc1ccccc1 ... 0.222
CCOC(=O)C[C@H]1[C@H](OC(=O)Cc2ccc3c(c2)OCO3)[C@@H](NC(=O)c2ccc(-c3ccccc3)cc2)c2cc(OCCCO)ccc2N1C(=O)Cc1ccc(OC)cc1 ... 0.0039
COc1ccc([C@H]2C[C@H]3C(Br)=C[C@@H]2C(=O)[C@]32CO2)cc1 ... -0.798
CC(C)N1C(=O)c2ccccc2[C@](C)(C(=O)NCc2ccccc2)[C@@H]1c1ccc(CO)cc1 ... -0.514
[N-]=[N+]=NCc1ccccc1[C@@H]1OC(c2ccc(OCCCO)cc2)=N[C@]1(CCS(=O)(=O)c1ccccc1)C(=O)NCCN1CCOCC1 ... -0.173

--- query ---
Let me know recorded composite z-score for `CCc1oc(CC[C@@H](CO)NC(=O)NCCn2cc(C3(O)CCCCC3)nn2)c(C(=O)OC)c1C(=O)OC` , thanks. -0.657

The values you see were collected from PubChem BioAssay.
